Target: EcaGST A3-3 (Equus caballus, UniProt M9ZT87)
Sequence (M9ZT87 entry or part of it): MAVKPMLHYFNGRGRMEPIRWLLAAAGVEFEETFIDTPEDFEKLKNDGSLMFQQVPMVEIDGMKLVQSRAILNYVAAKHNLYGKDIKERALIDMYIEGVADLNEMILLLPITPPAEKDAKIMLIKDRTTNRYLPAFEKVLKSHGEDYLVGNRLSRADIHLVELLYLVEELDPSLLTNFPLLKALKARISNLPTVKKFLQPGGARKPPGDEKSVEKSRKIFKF
Test: Inhibition of EcaGST A3-3 activity, GSH conjugation with CDNB
Type: biochemical, Equus ferus caballus
Conditions: 10 μM inhibitor, 1 mM GSH, 1 mM CDNB, sodium phosphate pH 6.5, 30°C; read-out: Inhibition (%) of EcaGST A3-3
Counter-ions that a name gives are not always drawn.
Quantity name: inhibition at 10 µM (%)
Field format: number, assumed %, no unit text.

1. C[C@]12CC[C@@H]3c4ccc(OS(=O)(=O)O)cc4CC[C@H]3[C@@H]1CCC2=O [Estropipate]    37

Next item in the queue.
Consider the compound shown here: CCN(CCCc1ccccc1)CCCc1ccccc1 [Alverine citrate] What is its recorded inhibition at 10 µM? 31

* * *

Each record here notes measured pIC50.
Molecular target: EcaGST A3-3 (Equus caballus, UniProt M9ZT87)
Assay: Inhibition of EcaGST A3-3 activity, GSH conjugation with CDNB
Format: biochemical, Equus ferus caballus
// scale note: pIC50 = -log10(conc_M); give the bare number

1) C=C(CC)C(=O)c1ccc(OCC(=O)O)c(Cl)c1Cl    6.74

Consider the molecule shown here: "Oc1c(Cl)cc(Cl)c(Cl)c1Cc1c(O)c(Cl)cc(Cl)c1Cl" What is its recorded pIC50? 6.49

* * *

# reported pIC50; entries follow
Target: EcaGST A3-3 (Equus caballus)
Assay: Inhibition of EcaGST A3-3 steroid double-bond isomerase activity with Δ^5-AD
Format: biochemical, Equus ferus caballus
Conditions: read-out: IC50 EcaGST A3-3, substrate Δ^5-AD; 0.1 mM Δ^5-AD, 1 mM GSH, 25 mM sodium phosphate pH 8.0, 30°C
Give only the number. pIC50 is defined as minus log10 of concentration in molar units.

1. O=C([O-])c1ccccc1-c1c2cc(Br)c(=O)cc-2oc2[c]([Hg+])c([O-])c(Br)cc12.[Na+].[Na+].[OH-] [Merbromin]    5.60

Query (compound): O=C(OCC1OC(OC(=O)c2cc(O)c(O)c(OC(=O)c3cc(O)c(O)c(O)c3)c2)C(OC(=O)c2cc(O)c(O)c(OC(=O)c3cc(O)c(O)c(O)c3)c2)C(OC(=O)c2cc(O)c(O)c(OC(=O)c3cc(O)c(O)c(O)c3)c2)C1OC(=O)c1cc(O)c(O)c(OC(=O)c2cc(O)c(O)c(O)c2)c1)c1cc(O)c(O)c(OC(=O)c2cc(O)c(O)c(O)c2)c1 (centres unmarked) [Tannic acid] ; field requested: pIC50 6.66

* * *

Target: HsaGST M2-2 (Homo sapiens)
Construct: made in house
Sequence (P28161 whole entry): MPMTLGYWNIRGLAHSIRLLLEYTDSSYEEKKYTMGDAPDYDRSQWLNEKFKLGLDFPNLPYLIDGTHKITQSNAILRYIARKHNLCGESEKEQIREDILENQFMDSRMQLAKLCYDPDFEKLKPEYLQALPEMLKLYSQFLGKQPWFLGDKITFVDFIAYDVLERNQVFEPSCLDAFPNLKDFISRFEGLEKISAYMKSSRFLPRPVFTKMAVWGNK
Assay: Inhibition of HsaGST M2-2 CDNB activity
Assay type: biochemical
Details: CDNB activity, 1 mM GSH, 1 mM CDNB, pH 6.5, 30°C; read-out: IC50 HsaGST M2-2
Description: EcaGST A3-3 [10], HsaGST A3-3 [12] and HsaGST M2-2 [13] were cloned, expressed and purified as described previously. Protein concentration was determined by means of the Bradford assay. The conjugation of GSH with the electrophilic substrate CDNB was used as a biochemical assay for general activity measurements. […] The conjugation activity at 30°C was monitored at 340 nm for 1 min in 0.1 M sodium phosphate buffer at pH 6.5 and 10 μM inhibitor concentration in a final volume of 300 μL. […]
Quantity name: IC50 (µM)
Provide only the numeric value, understood in µM.

See these solved cases before continuing.
1. O=C(Nc1ccc(C(=O)O)c(O)c1)c1ccccc1 [Benzoylpas]    2.5
2. O=C(O)c1cc(/N=N/c2ccc(S(=O)(=O)Nc3ccccn3)cc2)ccc1O [Sulfasalazine]    0.3

Field: next compound
// query IC50 value for entry Cc1ccc(C(=O)Nc2ccc(S(=O)(=O)O)c3cc(S(=O)(=O)O)cc(S(=O)(=O)O)c23)cc1NC(=O)c1cccc(NC(=O)Nc2cccc(C(=O)Nc3cc(C(=O)Nc4ccc(S(=O)(=O)O)c5cc(S(=O)(=O)O)cc(S(=O)(=O)O)c45)ccc3C)c2)c1 [Suramin] 0.62

* * *

Below, each of the compounds is paired with its reported Hill coefficient, CDNB inhibition value.
Target: EcaGST A3-3 (Equus caballus)
Experiment: Inhibition of EcaGST A3-3 activity, GSH conjugation with CDNB
Type: biochemical, Equus ferus caballus
Conditions: dose-response curve, substrate CDNB, mean ± SD
Give the figure by itself; no unit, no explanation.

1. C=C(CC)C(=O)c1ccc(OCC(=O)O)c(Cl)c1Cl    2.5
2. O=C(O)c1cc(O)c2c(c1)[C@H]([C@H]1c3cc(C(=O)O)cc(O)c3C(=O)c3c(O[C@@H]4O[C@H](CO)[C@@H](O)[C@H](O)[C@H]4O)cccc31)c1cccc(O[C@@H]3O[C@H](CO)[C@@H](O)[C@H](O)[C@H]3O)c1C2=O [Sennoside A]    2.2
3. O=C(OCC1OC(OC(=O)c2cc(O)c(O)c(OC(=O)c3cc(O)c(O)c(O)c3)c2)C(OC(=O)c2cc(O)c(O)c(OC(=O)c3cc(O)c(O)c(O)c3)c2)C(OC(=O)c2cc(O)c(O)c(OC(=O)c3cc(O)c(O)c(O)c3)c2)C1OC(=O)c1cc(O)c(O)c(OC(=O)c2cc(O)c(O)c(O)c2)c1)c1cc(O)c(O)c(OC(=O)c2cc(O)c(O)c(O)c2)c1 (stereo not shown)    2.2

// moving on: another record for Hill coefficient, CDNB inhibition
For "O=C1c2c(O)cccc2Cc2cccc(O)c21" , what is its reported Hill coefficient, CDNB inhibition? 2.0

* * *

Target: EcaGST A3-3 (Equus caballus, UniProt M9ZT87)
Assay: Inhibition of EcaGST A3-3 activity, GSH conjugation with CDNB
Type: biochemical, Equus ferus caballus
Details: 10 μM inhibitor, 1 mM GSH, 1 mM CDNB, sodium phosphate pH 6.5, 30°C; read-out: Inhibition (%) of EcaGST A3-3
Where a name gives a salt, the structure may show the parent alone.
Quantity name: inhibition at 10 µM (%)
Reply numerically in %, unit not repeated.

As a guide, the following entries are already answered.
1) CC[C@H]1OC(=O)[C@H](C)[C@@H](O[C@H]2C[C@@](C)(OC)[C@@H](O)[C@H](C)O2)[C@H](C)[C@@H](O[C@@H]2O[C@H](C)C[C@H](N(C)C)[C@H]2O)[C@](C)(OC)C[C@@H](C)C(=O)[C@H](C)[C@@H](O)[C@]1(C)O [Clarithromycin]    36
2) C=C1C[C@@H]2[C@H](CC[C@]3(C)C(=O)CC[C@@H]23)[C@@]2(C)C=CC(=O)C=C12 [Exemestane]    41

Turning to the following molecule.
# query: inhibition at 10 µM of entry NCC(=O)CCC(=O)O [Aminolevulinic acid hydrochloride] 32

* * *

Target: EcaGST A3-3 (Equus caballus, UniProt M9ZT87)
Assay: Inhibition of EcaGST A3-3 activity, GSH conjugation with CDNB
Type: biochemical, Equus ferus caballus
Conditions: 10 μM inhibitor, 1 mM GSH, 1 mM CDNB, sodium phosphate pH 6.5, 30°C
Quantity name: Inhibition (%) of EcaGST A3-3
Field: numeric (%). Do not append units.

Use the examples below as a reference point.
1. O=C([O-])c1ccccc1-c1c2cc(Br)c(=O)cc-2oc2[c]([Hg+])c([O-])c(Br)cc12.[Na+].[Na+].[OH-]    95
2. C=C(CC)C(=O)c1ccc(OCC(=O)O)c(Cl)c1Cl    100
3. Nc1ccc(C(=O)[O-])cc1.[K+] [Potassium p-aminobenzoate]    30
4. OC[C@H]1O[C@H]([S-])[C@H](O)[C@@H](O)[C@@H]1O.[Au+]    78

Proceeding to the next molecule to report its Inhibition (%) of EcaGST A3-3.
Entry Oc1c(Cl)cc(Cl)cc1Sc1cc(Cl)cc(Cl)c1O [Bithionate sodium] has what Inhibition (%) of EcaGST A3-3? 64

* * *

Molecular target: EcaGST A3-3 (Equus caballus, UniProt M9ZT87)
Test: Inhibition of EcaGST A3-3 steroid double-bond isomerase activity with Δ^5-AD
Format: biochemical, Equus ferus caballus
Details: 0.1 mM Δ^5-AD, 1 mM GSH, 25 mM sodium phosphate pH 8.0, 30°C
Quantity name: IC50 EcaGST A3-3, substrate Δ^5-AD

// below: answered compounds
1) O=C(OCC1OC(OC(=O)c2cc(O)c(O)c(OC(=O)c3cc(O)c(O)c(O)c3)c2)C(OC(=O)c2cc(O)c(O)c(OC(=O)c3cc(O)c(O)c(O)c3)c2)C(OC(=O)c2cc(O)c(O)c(OC(=O)c3cc(O)c(O)c(O)c3)c2)C1OC(=O)c1cc(O)c(O)c(OC(=O)c2cc(O)c(O)c(O)c2)c1)c1cc(O)c(O)c(OC(=O)c2cc(O)c(O)c(O)c2)c1 (stereo not drawn)    submicromolar range
2) C=C(CC)C(=O)c1ccc(OCC(=O)O)c(Cl)c1Cl    submicromolar range
3) OC[C@H]1O[C@H]([S-])[C@H](O)[C@@H](O)[C@@H]1O.[Au+]    Anomalous curve
4) O=C1c2c(O)cccc2Cc2cccc(O)c21    submicromolar range
5) O=C(O)c1cc(O)c2c(c1)[C@H]([C@H]1c3cc(C(=O)O)cc(O)c3C(=O)c3c(O[C@@H]4O[C@H](CO)[C@@H](O)[C@H](O)[C@H]4O)cccc31)c1cccc(O[C@@H]3O[C@H](CO)[C@@H](O)[C@H](O)[C@H]3O)c1C2=O [Sennoside A]    submicromolar range

--- query ---
Fill in the recorded IC50 EcaGST A3-3, substrate Δ^5-AD for this compound, with EcaGST A3-3 (Equus caballus, UniProt M9ZT87) as test system: COC(=O)C1=C(C)NC(C)=C(C(=O)OCC(C)C)C1c1ccccc1[N+](=O)[O-] (stereo not drawn) Anomalous curve

Reference for the values: paper PMC6428247
